Reference source: ChEMBL document CHEMBL3797045

Recorded Km by entry
- System: Mycobacterium tuberculosis
- protocol_text: Activity at Mycobacterium tuberculosis beta lactamase BlaC expressed in Escherichia coli by spectrophotometric method
quantity_measured: Km (µM)

>>> print(df.to_string())
                                    molecule  result
 0  CCSC1=C(C(=O)O)N2C(=O)[C@H]([C@@H](C)OC(=O)c3c(F)c(F)c(F)c(F)c3F)[C@H]2[C@H]1C     1.4
 1  C[C@@H](O)[C@H]1C(=O)N2C(C(=O)O)=C(S[C@@H]3CN[C@H](C(=O)N(C)C)C3)[C@H](C)[C@H]12    0.92
 2  C[C@@H](O)[C@H]1C(=O)N2C(C(=O)O)=C(SCCc3cn(CCc4c[nH]c5ccccc45)nn3)[C@H](C)[C@H]12    0.17
 3  C[C@@H](O)[C@H]1C(=O)N2C(C(=O)O)=C(SCCc3ccccc3)[C@H](C)[C@H]12     1.5
 4  C[C@@H](O)[C@H]1C(=O)N2C(C(=O)O)=C(SCCc3cn(CCCCC(=O)O)nn3)[C@H](C)[C@H]12      56
 5  CCSC1=C(C(=O)O)N2C(=O)[C@H]([C@@H](C)O)[C@H]2[C@H]1C      11
 6  C[C@@H](O)[C@H]1C(=O)N2C(C(=O)O)=C(S[C@@H]3CN[C@H](CNS(N)(=O)=O)C3)[C@H](C)[C@H]12    0.46
 7  C[C@@H](O)[C@H]1C(=O)N2C(C(=O)O)=C(SCCc3cn(-c4cccc(C(=O)O)c4)nn3)[C@H](C)[C@H]12      19
 8  CCSC1=C(C(=O)O)N2C(=O)[C@H]([C@@H](C)OC(=O)c3ccccc3)[C@H]2[C@H]1C     1.2
 9  C[C@@H](O)[C@H]1C(=O)N2C(C(=O)O)=C(S[C@@H]3CN[C@H](C(=O)Nc4cccc(C(=O)O)c4)C3)[C@H](C)[C@H]12     4.8
10  C[C@@H](O)[C@H]1C(=O)N2C(C(=O)O)=C(SCCN)[C@H](C)[C@H]12     3.5
11  C[C@@H](O)[C@H]1C(=O)N2C(C(=O)O)=C(SCCc3cn(-c4ccccc4C(=O)O)nn3)[C@H](C)[C@H]12     3.3
12  CC(c1ccc(C(=O)O)cc1)n1cc(CCSC2=C(C(=O)O)N3C(=O)[C@H]([C@@H](C)O)[C@H]3[C@H]2C)nn1 (some centres undefined)      47
13  C[C@@H](O)[C@H]1C(=O)N2C(C(=O)O)=C(SCCc3cn(-c4ccccc4)nn3)[C@H](C)[C@H]12    0.31
